Reference for the values: ChEMBL document CHEMBL4229530

For each of the compounds below, state its MIC.
# Test system: Pseudomonas aeruginosa
# Assay Comment: Antibacterial activity against drug-resistant Pseudomonas aeruginosa after 24 hrs by INT dye based microdilution assay
# Type: functional
Your answer is read as µM, so omit the unit and give the number.

Exam item: Consider the compound shown here: O=C1N/C(=N\c2nnc(C34CC5CC(CC(C5)C3)C4)s2)S/C1=C/c1ccccc1 What is its recorded MIC?
Marked response: 47.3

Exam item: Consider the compound shown here: O=C1N/C(=N\c2nnc(C34CC5CC(CC(C5)C3)C4)s2)S/C1=C/c1cccc([N+](=O)[O-])c1 What is its recorded MIC?
Marked response: 53.5

Exam item: Consider the compound shown here: CC1(C)S[C@@H]2[C@H](NC(=O)[C@H](N)c3ccccc3)C(=O)N2[C@H]1C(=O)O [AMPICILLIN] What is its recorded MIC?
Marked response: 1240

Exam item: Consider the compound shown here: COc1ccc(/C=C2/S/C(=N/c3nnc(C45CC6CC(CC(C6)C4)C5)s3)NC2=O)cc1 What is its recorded MIC?
Marked response: 111

Exam item: Consider the compound shown here: O=C1N/C(=N\c2nnc(C34CC5CC(CC(C5)C3)C4)s2)S/C1=C/c1ccc([N+](=O)[O-])cc1 What is its recorded MIC?
Marked response: 8

Exam item: Consider the compound shown here: O=C1N/C(=N\c2nnc(C34CC5CC(CC(C5)C3)C4)s2)S/C1=C/c1ccc(Cl)cc1Cl What is its recorded MIC?
Marked response: 163

* * *

# System: Talaromyces funiculosus
# Assay Comment: Antifungal activity against Penicillium funiculosum ATCC 36839 after 72 hrs by serial dilution assay
# Type: functional
# Protocol Conditions: ATCC 36839, 72 h
Recorded Endpoint: MIC (µM)
Your answer is read as µM, so omit the unit and give the number.

Exam item: Consider the compound shown here: O=C1N/C(=N\c2nnc(C34CC5CC(CC(C5)C3)C4)s2)S/C1=C/c1cccc(Cl)c1Cl What is its recorded MIC?
Marked response: 326

Exam item: Consider the compound shown here: CN(C)c1ccc(/C=C2/S/C(=N/c3nnc(C45CC6CC(CC(C6)C4)C5)s3)NC2=O)cc1 What is its recorded MIC?
Marked response: 150

Exam item: Consider the compound shown here: COc1ccc(/C=C2/S/C(=N/c3nnc(C45CC6CC(CC(C6)C4)C5)s3)NC2=O)cc1 What is its recorded MIC?
Marked response: 99.8

Exam item: Consider the compound shown here: O=C1N/C(=N\c2nnc(C34CC5CC(CC(C5)C3)C4)s2)S/C1=C/c1ccc(O)cc1 What is its recorded MIC?
Marked response: 71

Exam item: Consider the compound shown here: O=C1N/C(=N\c2nnc(C34CC5CC(CC(C5)C3)C4)s2)S/C1=C/c1ccccc1[N+](=O)[O-] What is its recorded MIC?
Marked response: 482

Exam item: Consider the compound shown here: O=C1N/C(=N\c2nnc(C34CC5CC(CC(C5)C3)C4)s2)S/C1=C/c1ccc(Br)cc1 What is its recorded MIC?
Marked response: 125

Exam item: Consider the compound shown here: c1ccc(-c2ccc(C(c3ccccc3)n3ccnc3)cc2)cc1 (stereo not given) [BIFONAZOLE] What is its recorded MIC?
Marked response: 640

Exam item: Consider the compound shown here: O=C1N/C(=N\c2nnc(C34CC5CC(CC(C5)C3)C4)s2)S/C1=C/c1ccccc1 What is its recorded MIC?
Marked response: 47.5

Exam item: Consider the compound shown here: O=C1N/C(=N\c2nnc(C34CC5CC(CC(C5)C3)C4)s2)S/C1=C/c1c(F)cccc1F What is its recorded MIC?
Marked response: 393

Exam item: Consider the compound shown here: COc1cc(/C=C2/S/C(=N/c3nnc(C45CC6CC(CC(C6)C4)C5)s3)NC2=O)ccc1O What is its recorded MIC?
Marked response: 66

* * *

For each of the compounds below, state its MIC.
# Test system: Aspergillus versicolor
# Assay Comment: Antifungal activity against Aspergillus versicolor ATCC 11730 after 72 hrs by serial dilution assay
# Type: functional
# Protocol Conditions: ATCC 11730, 72 h
Your answer is read as µM, so omit the unit and give the number.

Exam item: Consider the compound shown here: Cc1ccc(/C=C2/S/C(=N/c3nnc(C45CC6CC(CC(C6)C4)C5)s3)NC2=O)cc1 What is its recorded MIC?
Marked response: 183

Exam item: Consider the compound shown here: O=C1N/C(=N\c2nnc(C34CC5CC(CC(C5)C3)C4)s2)S/C1=C/c1ccccc1[N+](=O)[O-] What is its recorded MIC?
Marked response: 321

Exam item: Consider the compound shown here: O=C1N/C(=N\c2nnc(C34CC5CC(CC(C5)C3)C4)s2)S/C1=C/c1c(Cl)cccc1Cl What is its recorded MIC?
Marked response: 61

Exam item: Consider the compound shown here: COc1cc(/C=C2/S/C(=N/c3nnc(C45CC6CC(CC(C6)C4)C5)s3)NC2=O)ccc1O What is its recorded MIC?
Marked response: 33

Exam item: Consider the compound shown here: O=C1N/C(=N\c2nnc(C34CC5CC(CC(C5)C3)C4)s2)S/C1=C/c1cccc([N+](=O)[O-])c1 What is its recorded MIC?
Marked response: 107

Exam item: Consider the compound shown here: O=C1N/C(=N\c2nnc(C34CC5CC(CC(C5)C3)C4)s2)S/C1=C/c1cccc(Cl)c1Cl What is its recorded MIC?
Marked response: 163

Exam item: Consider the compound shown here: O=C1N/C(=N\c2nnc(C34CC5CC(CC(C5)C3)C4)s2)S/C1=C/c1ccccc1 What is its recorded MIC?
Marked response: 95

Exam item: Consider the compound shown here: O=C1N/C(=N\c2nnc(C34CC5CC(CC(C5)C3)C4)s2)S/C1=C/c1ccc(Cl)cc1 What is its recorded MIC?
Marked response: 68

Exam item: Consider the compound shown here: O=C1N/C(=N\c2nnc(C34CC5CC(CC(C5)C3)C4)s2)S/C1=C/c1ccc(Br)cc1 What is its recorded MIC?
Marked response: 62.5

Exam item: Consider the compound shown here: O=C1N/C(=N\c2nnc(C34CC5CC(CC(C5)C3)C4)s2)S/C1=C/c1ccc(O)cc1 What is its recorded MIC?
Marked response: 71

Exam item: Consider the compound shown here: O=C1N/C(=N\c2nnc(C34CC5CC(CC(C5)C3)C4)s2)S/C1=C/c1ccc(F)cc1 What is its recorded MIC?
Marked response: 90.9

* * *

# Tested on: Aspergillus versicolor
# Assay Comment: Antifungal activity against Aspergillus versicolor ATCC 11730 after 72 hrs by serial dilution assay
# Type: functional
# Protocol Conditions: ATCC 11730, 72 h
For each of the compounds below, state its MIC.
Your answer is read as µM, so omit the unit and give the number.

Exam item: Consider the compound shown here: CN(C)c1ccc(/C=C2/S/C(=N/c3nnc(C45CC6CC(CC(C6)C4)C5)s3)NC2=O)cc1 What is its recorded MIC?
Marked response: 150

Exam item: Consider the compound shown here: O=C1N/C(=N\c2nnc(C34CC5CC(CC(C5)C3)C4)s2)S/C1=C/c1c(F)cccc1F What is its recorded MIC?
Marked response: 393

Exam item: Consider the compound shown here: CC(=O)N1CCN(c2ccc(OCC3COC(Cn4ccnc4)(c4ccc(Cl)cc4Cl)O3)cc2)CC1 (stereo not drawn) What is its recorded MIC?
Marked response: 2850

Exam item: Consider the compound shown here: O=C1N/C(=N\c2nnc(C34CC5CC(CC(C5)C3)C4)s2)S/C1=C/c1cccc(Cl)c1 What is its recorded MIC?
Marked response: 68

Exam item: Consider the compound shown here: O=C1N/C(=N\c2nnc(C34CC5CC(CC(C5)C3)C4)s2)S/C1=C/c1ccc([N+](=O)[O-])cc1 What is its recorded MIC?
Marked response: 8

Exam item: Consider the compound shown here: COc1ccc(/C=C2/S/C(=N/c3nnc(C45CC6CC(CC(C6)C4)C5)s3)NC2=O)cc1 What is its recorded MIC?
Marked response: 99.8

Exam item: Consider the compound shown here: c1ccc(-c2ccc(C(c3ccccc3)n3ccnc3)cc2)cc1 (stereo not drawn) What is its recorded MIC?
Marked response: 480

Exam item: Consider the compound shown here: O=C1N/C(=N\c2nnc(C34CC5CC(CC(C5)C3)C4)s2)S/C1=C/c1ccc(Cl)cc1Cl What is its recorded MIC?
Marked response: 163

* * *

# Tested on: Pseudomonas aeruginosa
# Assay Comment: Antibacterial activity against drug-resistant Pseudomonas aeruginosa after 24 hrs by INT dye based microdilution assay
# Assay type: functional
Recorded Endpoint: MIC (µM)
Your answer is read as µM, so omit the unit and give the number.

Exam item: Consider the compound shown here: O=C1N/C(=N\c2nnc(C34CC5CC(CC(C5)C3)C4)s2)S/C1=C/c1cccc(Cl)c1Cl What is its recorded MIC?
Marked response: 183

Exam item: Consider the compound shown here: O=C1N/C(=N\c2nnc(C34CC5CC(CC(C5)C3)C4)s2)S/C1=C/c1c(F)cccc1F What is its recorded MIC?
Marked response: 393

Exam item: Consider the compound shown here: Cc1ccc(/C=C2/S/C(=N/c3nnc(C45CC6CC(CC(C6)C4)C5)s3)NC2=O)cc1 What is its recorded MIC?
Marked response: 115

Exam item: Consider the compound shown here: CN(C)c1ccc(/C=C2/S/C(=N/c3nnc(C45CC6CC(CC(C6)C4)C5)s3)NC2=O)cc1 What is its recorded MIC?
Marked response: 150

Exam item: Consider the compound shown here: O=C1N/C(=N\c2nnc(C34CC5CC(CC(C5)C3)C4)s2)S/C1=C/c1c(Cl)cccc1Cl What is its recorded MIC?
Marked response: 61.1

Exam item: Consider the compound shown here: O=C1N/C(=N\c2nnc(C34CC5CC(CC(C5)C3)C4)s2)S/C1=C/c1ccccc1[N+](=O)[O-] What is its recorded MIC?
Marked response: 175

Exam item: Consider the compound shown here: CN[C@@H]1[C@H](O[C@H]2[C@H](O[C@H]3[C@H](O)[C@@H](O)[C@H](N=C(N)N)[C@@H](O)[C@@H]3N=C(N)N)O[C@@H](C)[C@]2(O)C=O)O[C@@H](CO)[C@H](O)[C@H]1O What is its recorded MIC?
Marked response: 129

Exam item: Consider the compound shown here: O=C1N/C(=N\c2nnc(C34CC5CC(CC(C5)C3)C4)s2)S/C1=C/c1ccc(F)cc1 What is its recorded MIC?
Marked response: 295
